Data provenance: patent US9409884B2

# EC50 per record follows
- target-or-test-system: AMPK
- measurement-notes: AMPK activation, enzyme-linked immunosorbent assay
- Type: biochemical
- reported-conditions: Table 8, compounds of Table 1

>>> experimental_value("CC(C)(C)OC(=O)N1CCC(NS(=O)(=O)c2ccc(OC3CCN(c4ccc(C(F)(F)F)cc4)CC3)nc2)CC1")
"1000 to 5000 nM"
>>> experimental_value("N#Cc1cccc(CN2CCC(NC(=O)c3cc4ccc(OC5CCN(c6ccc(C(F)(F)F)cc6)CC5)cc4s3)CC2)c1")
"100 to 500 nM"
>>> experimental_value("O=C(NC1CCN(Cc2ccccc2)CC1)c1cc2cc(OC3CCN(c4ccc(C(F)(F)F)cc4)CC3)ccc2o1")
"< 100 nM"

Here is the next item to consider.
Form field EC50, entry `O=C(NC1CCN(Cc2ccccc2)CC1)c1cc2cc(OC3CCN(Cc4ccc(F)c(F)c4)CC3)ccc2o1` : 100 to 500 nM
